METHOD SUMMARY: stimulators of nuclear beta-catenin in C2C12, primary screen, imaging, WNT3A-conditioned medium, mouse C2C12, NPC library (AID 1117326); note: reference of the scale not given here
ASSAY CONTEXT: at 10 µM, hits give high values
Quick reference: nuclear beta-catenin stimulation of the listed items.
Provide only the numeric value, understood in %.

Recorded results for 2 compounds are shown here.
# COMPOUND, ENDPOINT RESULT
measured = [
    ("O=S(=O)(O)CCS", 1.9),
    ("COc1cc(C(=S)N2CCOCC2)cc(OC)c1OC", -0.6),
]

Let us examine a further case.
Item under review: `CO[C@@]1(NC(=O)Cc2cccs2)C(=O)N2C(C(=O)O)=C(COC(N)=O)CS[C@@H]21` . Reported nuclear beta-catenin stimulation?
-1.4
